Biological target: human PD-L1 (Homo sapiens, UniProt Q9NZQ7)
Construct: purchased Cisbio Bioassays SAS, Codolet, France 64PD1PEG
Sequence (Q9NZQ7 19-238 limits assumed): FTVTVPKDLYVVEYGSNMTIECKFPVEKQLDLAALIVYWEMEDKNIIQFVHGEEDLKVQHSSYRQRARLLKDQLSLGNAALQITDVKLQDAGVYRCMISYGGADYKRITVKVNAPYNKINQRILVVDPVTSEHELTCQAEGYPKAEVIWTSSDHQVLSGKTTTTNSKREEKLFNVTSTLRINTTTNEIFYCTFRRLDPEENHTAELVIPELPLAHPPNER
Assay: HTRF PD-1/PD-L1 binding assay (cell-free)
Settings: cell-free competitive PD-1/PD-L1 HTRF; mean ± SD; read-out: IC50 (hPD-L1 binding affinity, HTRF)
pIC50: −log10 of the molar value.
Measurement Label: pIC50

Cc1c(COc2cc(OCc3ccnc(C#N)c3)c(CN3CCCC[C@H]3C(=O)O)cc2Cl)cccc1-n1cccc1
7.54
Cc1c(COc2cc(OCc3ccnc(C#N)c3)c(CNCCO)cc2Cl)cccc1-n1cccc1
7.30
CC(=O)NCCN(Cc1cc(Cl)c(OCc2cccc(-c3ccc4c(c3)OCCO4)c2C)cc1OCc1cccc(C#N)c1)C(=O)OCCF
5.77
COC(=O)[C@@H](CO)NCc1cc(Cl)c(OCc2cccc(-c3ccc4c(c3)OCCO4)c2C)cc1OCc1ccnc(C#N)c1
7.52
CC(=O)NCCNCc1cc(Cl)c(OCc2cccc(-c3ccc4c(c3)OCCO4)c2C)cc1OCc1cocn1
7.30

(P) Cc1c(COc2cc(OCc3ccnc(C#N)c3)c(CN(C)CCO)cc2Cl)cccc1-n1cccc1
(Q) Cc1c(COc2cc(OCc3ccnc(C#N)c3)c(CN[C@H](CO)C(=O)O)cc2Cl)cccc1-n1cccc1
(R) Cc1c(COc2cc(OCc3ccnc(C#N)c3)c(CNCCOCCOCCOCCOCCC(=O)O)cc2Cl)cccc1-c1ccc2c(c1)OCCO2
(S) C#CCOC(=O)NCCCC[C@H](NCc1cc(Cl)c(OCc2cccc(-c3ccc4c(c3)OCCO4)c2C)cc1OCc1ccnc(C#N)c1)C(=O)O
Exercise: Order each entry by recorded pIC50, climbing from the minimum. Response field: labels, in requested order.
Key: R, P, Q, S
(R: 7.34, P: 7.80, Q: 8.22, S: 8.43)

====

Test system: CHO-hPD-L1 cells
Assay: MTT cell viability assay
Format: cell-based, Chinese hamster
Details: Cricetulus griseus; CHO-hPD-L1 cells, 24 h; read-out: EC50 (cell viability, MTT)
Measurement Label: EC50 (µM)
Respond with the bare value in µM.

Exercise: Given the compound Cc1c(COc2cc(OCc3ccnc(C#N)c3)c(CN(C)CCO)cc2Cl)cccc1-c1ccc2c(c1)OCCO2 , what is its reported EC50?
Key: 11.6

====

Assay: Lipophilicity by HPLC method (μHPLC logD)
Settings: pH 7.4, μHPLC logD
Measurement Label: chromatographic logD

Some compounds with known chromatographic logD results, for comparison:
Cc1c(COc2cc(OCc3ccnc(C#N)c3)c(CN(C)CCO)cc2Cl)cccc1-n1cccc1
4.54
CC(=O)NCCNCc1cc(Cl)c(OCc2cccc(-c3ccc4c(c3)OCCO4)c2C)cc1OCc1ccnc(C#N)c1
4.45
Cc1c(COc2cc(OCc3ccnc(C#N)c3)c(CN3CCCC[C@H]3C(=O)O)cc2Cl)cccc1-n1cccc1
3.14
Cc1c(COc2cc(OCc3ccnc(C#N)c3)c(CN[C@H](CO)C(=O)O)cc2Cl)cccc1-c1ccc2c(c1)OCCO2
3.25
Cc1c(COc2cc(OCc3ccnc(C#N)c3)c(CNCCF)cc2Cl)cccc1-c1ccc2c(c1)OCCO2
5.21
Cc1c(COc2cc(OCc3ccnc(C#N)c3)c(CN(C)CCO)cc2Cl)cccc1-c1ccc2c(c1)OCCO2
4.93
Cc1c(COc2cc(OCc3ccnc(C#N)c3)c(CNCCO)cc2Cl)cccc1-n1cccc1
4.34
CC(=O)N1CCN(Cc2cc(Cl)c(OCc3cccc(-c4ccc5c(c4)OCCO5)c3C)cc2OCc2cccc(C#N)c2)C1=O
5.61

(I) CC(=O)NCCNCc1cc(Cl)c(OCc2cccc(-c3ccc4c(c3)OCCO4)c2C)cc1OCc1cccc(C#N)c1
(II) Cc1c(COc2cc(OCc3ccnc(C#N)c3)c(CN[C@H](CO)C(=O)O)cc2Cl)cccc1-n1cccc1
Exercise: Among I and II , which shows a numerically higher chromatographic logD result? // return label of chosen record
Key: I

====

Assay: Lipophilicity by HPLC method (μHPLC logD)
Conditions: pH 7.4, μHPLC logD
Measurement Label: chromatographic logD

C#CCC[C@H](NCc1cc(Cl)c(OCc2cccc(-c3ccc4c(c3)OCCO4)c2C)cc1OCc1ccnc(C#N)c1)C(=O)O [Compound 4h]
3.42
Cc1c(COc2cc(OCc3ccnc(C#N)c3)c(CNCCO)cc2Cl)cccc1-c1ccc2c(c1)OCCO2 [Compound 4e]
4.71
Cc1c(COc2cc(OCc3ccnc(C#N)c3)c(CN3CCCC[C@H]3C(=O)O)cc2Cl)cccc1-c1ccc2c(c1)OCCO2 [Compound 4f]
3.64
Cc1c(COc2cc(OCc3cocn3)c(CN3CCCC[C@H]3C(=O)O)cc2Cl)cccc1-c1ccc2c(c1)OCCO2 [Compound 4l]
3.39

(A) C#CCOC(=O)NCCCC[C@H](NCc1cc(Cl)c(OCc2cccc(-c3ccc4c(c3)OCCO4)c2C)cc1OCc1ccnc(C#N)c1)C(=O)O [Compound 4i]
(B) COCCNCc1cc(Cl)c(OCc2cccc(-c3ccc4c(c3)OCCO4)c2C)cc1OCc1ccnc(C#N)c1 [Compound 5d]
(C) CC(=O)NCCNCc1cnc(OCc2cccc(-c3ccccc3)c2C)c(Cl)c1 [Compound 4a]
Exercise: Ascending by chromatographic logD, please: list the molecules accordingly. To answer, write out the labels according to the requested order.
Key: C, A, B
(C: 2.33, A: 3.47, B: 5.09)

====

Experiment: Lipophilicity by HPLC method (μHPLC logD)
Conditions: pH 7.4, μHPLC logD
Measurement Label: chromatographic logD

Cc1c(COc2cc(OCc3ccnc(C#N)c3)c(CNCCOCCOCCOCCOCCC(=O)O)cc2Cl)cccc1-c1ccc2c(c1)OCCO2
3.42
Cc1c(COc2cc(OCc3cccc(C#N)c3)c(CN[C@H](CO)C(=O)O)cc2Cl)cccc1-c1ccccc1
3.46
CC(=O)NCCNCc1cc(Cl)c(OCc2cccc(-c3ccc4c(c3)OCCO4)c2C)cc1OCc1cocn1
4.21

(I) COC(=O)[C@@H](CO)NCc1cc(Cl)c(OCc2cccc(-c3ccc4c(c3)OCCO4)c2C)cc1OCc1ccnc(C#N)c1
(II) Cc1c(COc2cc(OCc3ccnc(C#N)c3)c(CN(C)[C@H](CO)C(=O)O)cc2Cl)cccc1-c1ccc2c(c1)OCCO2
Exercise: Sort I and II by chromatographic logD descending and give the first. Response format: the label of the selected entry.
Key: I

====

Target: human PD-L1 (Homo sapiens, UniProt Q9NZQ7)
Construct: purchased Cisbio Bioassays SAS, Codolet, France 64PD1PEG
Experiment: HTRF PD-1/PD-L1 binding assay (cell-free)
Details: cell-free competitive PD-1/PD-L1 HTRF; mean ± SD; read-out: IC50 (hPD-L1 binding affinity, HTRF)
Measurement Label: IC50 (nM)

Cc1c(COc2cc(OCc3ccnc(C#N)c3)c(CN(C)[C@H](CO)C(=O)O)cc2Cl)cccc1-c1ccc2c(c1)OCCO2
6.2
CC(=O)NCCNCc1cc(Cl)c(OCc2cccc(-c3ccc4c(c3)OCCO4)c2C)cc1OCc1ccnc(C#N)c1
9.2
C#CCC[C@H](NCc1cc(Cl)c(OCc2cccc(-c3ccc4c(c3)OCCO4)c2C)cc1OCc1ccnc(C#N)c1)C(=O)O
8.2

====

Biological target: human PD-L1 (Homo sapiens, UniProt Q9NZQ7)
Construct: purchased Cisbio Bioassays SAS, Codolet, France 64PD1PEG
Test: HTRF PD-1/PD-L1 binding assay (cell-free)
Conditions: cell-free competitive PD-1/PD-L1 HTRF; mean ± SD; read-out: IC50 (hPD-L1 binding affinity, HTRF)
pIC50: −log10 of the molar value.
Measurement Label: pIC50

Sample records with pIC50:
Cc1c(COc2cc(O)c(C=O)cc2Cl)cccc1-c1ccccc1 [Compound 2b]
< 4.00
Cc1c(COc2cc(O)c(C=O)cc2Cl)cccc1-c1ccc2c(c1)OCCO2 [Compound 2c]
< 4.00

Moving on to another molecule below.
Exercise: Would you kindly share the measured pIC50 for Cc1c(COc2cc(OCc3cocn3)c(C=O)cc2Cl)cccc1-c1ccc2c(c1)OCCO2 [Compound 3d] ?
Key: < 5.30
